tested on: HSV-2; assay: Anti-HSV-2 replication assay in Vero cells, titer by plaque assay; assay type: cell-based, herpes simplex virus 2; details: primary screening
readout.label: Inhibition of HSV-2 replication (in words)

- compound: "O=C(O)C(=O)CC(=O)c1ccccc1 [Compound 131]"
  result: "negligible inhibition"
- compound: "CC(C)c1ccc(O)c(=O)cc1 [Compound 48, Gamma-thujaplicin]"
  result: "negligible inhibitors"
- compound: "O=C(Nc1ccc(O)c(=O)cc1)c1ccccc1 [Compound 52]"
  result: "negligible inhibitors"
- compound: "Cc1sc2nc(-c3ccccc3)nc(O)c2c1C [Compound 136]"
  result: "negligible inhibition"

* * *

Listed below: CC50 at 24 h values for each entry.
Test: CytoTox-Glo cellular lysis assay in Vero cells
Format: cell-based
Details: African green monkey, Vero cells, read-out: Vero cell toxicity CTG CC50
Protocol: Quantitative toxicity measurements were conducted for all compounds that suppressed HSV replication by approximately 2 login or more at 5 μM plus a number of compounds with lesser inhibitory activity for comparison. Toxicity was assessed by measuring release of intracellular proteases into the culture medium due to cellular lysis. […]
readout.label: CC50 at 24 h

- molecule: "Nc1nc2c(ncn2COCCO)c(=O)[nH]1 [ACV, Acyclovir, reference compound]"
  result: "> 100 µM"
- molecule: "Cc1cc(C2CCCCC2)n(O)c(=O)c1 [Compound 41, Ciclopirox, reference compound]"
  result: "> 100 µM"

* * *

target: HBV RNaseH (Hepatitis B virus genotype A2 subtype adw2, UniProt P03159); construct: One of the inventors recently produced active recombinant HBV RNase H; hexahistidine; made in house; host or cells: E. coli; test: Biochemical inhibition of HBV RNaseH (oligonucleotide-directed RNA cleavage assay); settings: compounds at 60, 20 or 10 μM
Sequence (P03159 693-845): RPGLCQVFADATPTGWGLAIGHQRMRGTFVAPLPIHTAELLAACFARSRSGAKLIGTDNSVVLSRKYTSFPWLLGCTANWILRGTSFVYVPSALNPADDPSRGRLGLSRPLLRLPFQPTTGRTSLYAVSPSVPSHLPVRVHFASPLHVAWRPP

- cpd.smiles: "Cc1cc(=O)oc2cc(O)c(O)cc12"
  Anti-HBV RNaseH: "++ (inhibition at 20 μM)"
- cpd.smiles: "Cc1c2cc(O)c(=O)cc-2oc2cc(O)c(O)cc12"
  Anti-HBV RNaseH: "++ (inhibition at 20 μM)"
- cpd.smiles: "CCOC(=O)c1sc(NC(=O)CSc2nnc(Cc3ccccc3)o2)c(C#N)c1C"
  Anti-HBV RNaseH: "+ (inhibition at 60 μM)"
- cpd.smiles: "Cc1cc(C)c(C#N)c(=N)o1"
  Anti-HBV RNaseH: "+ (inhibition at 60 μM)"

* * *

test system: HSV-1; assay: Anti-HSV-1 replication assay in Vero cells, titer by plaque assay; assay type: cell-based, herpes simplex virus 1; details: moi 0.1, 24 h
pEC50: −log10 of the molar value.

- compound: "C=C(C)C1CCc2c(c(C)cc(O)c(=O)c2O)C1 (stereo not shown)"
  pEC50: 6.46
- compound: "CC(C)=CCc1ccc(O)c(=O)cc1C(C)C"
  pEC50: 6.62
- compound: "CC(=O)NC(CCc1ccc(Cl)c(Cl)c1)c1cccc(O)c(=O)c1 (stereo not shown)"
  pEC50: 6.38
- compound: "CC(C)c1ccc(O)c(=O)c(O)c1"
  pEC50: 5.71

* * *

Listed below: CC50 at 24 h values for each entry.
experiment: MTT mitochondrial toxicity assay in Vero cells; type: cell-based; conditions: African green monkey, Vero cells, read-out: Vero cell toxicity MTT CC50

- molecule: "Cc1cc(C2CCCCC2)n(O)c(=O)c1 [Compound 41, Ciclopirox, reference compound]"
  CC50 at 24 h: "> 50 µM"
- molecule: "Nc1nc2c(ncn2COCCO)c(=O)[nH]1 [ACV, Acyclovir, reference compound]"
  CC50 at 24 h: "> 100 µM"
